IC50, CYP 2C19 (Homo sapiens), per-entry values.
Field format: number, assumed µM, no unit text.

Prompt: // lookup IC50 for CN1C(=O)N(c2cc(Cl)cc(Cl)c2)C(=O)[C@]12CN(c1ccc(C(=O)O)cn1)C[C@H]2c1ccc(C#N)cc1
Response: 38.2

Prompt: For CN1C(=O)N(c2cc(Cl)cc(Cl)c2)C(=O)[C@]12CN(c1ccccn1)C[C@H]2c1ccc(C#N)cc1 (relative stereo) then?
Response: 0.11
